Each item that follows carries a reported GI50.
system: leukemia cell lines; assay: Resazurin cell viability assay on leukemia cell lines (72 h growth inhibition, GI50); type: cell-based; conditions: Homo sapiens, MV4-11 cells
PARAMETER: GI50

Cc1cnc(N2CCC3(CCNC3=O)CC2)nc1-c1cnc2ccccn12 [Compound 124] ... > 5 µM
Cc1cnc(N[C@]23C[C@@]4(C)C[C@](C)(C[C@](O)(C4)C2)C3)nc1-c1cnc2ccc(-c3ccccc3)cn12 [Compound 100] ... > 10 µM
N[C@H]1CC[C@H](Nc2ncc(F)c(-c3cnc4cc(Nc5cccnc5)ccn34)n2)CC1 [Compound 46] ... < 0.001 µM

###

tested on: leukemia cell lines; assay: Resazurin cell viability assay on leukemia cell lines (72 h growth inhibition, GI50); type: cell-based; conditions: Homo sapiens, MV4-11 cells
Categorized via GI50: low end = under 0.02 µM, middle = from 0.02 µM up to 0.3 µM, high end = 0.3 µM and over

N[C@H]1CC[C@H](Nc2ncc(Cl)c(-c3cnc4c(Br)cc(C(F)(F)F)cn34)n2)CC1 ... high end
Fc1cnc(NC2CCNCC2)nc1-c1cnc2ccccn12 ... low end
Cc1cnc(N[C@H]2CC[C@H](N)CC2)nc1-c1cnc2cc(-c3ccccc3)ccn12 ... low end
N[C@H]1CC[C@H](Nc2ncc(Cl)c(-c3cnc4ccc(-c5cccnc5)cn34)n2)CC1 ... low end
N[C@H]1CC[C@H](Nc2ncc(Cl)c(-c3cnc4ccc(C(F)(F)F)cn34)n2)CC1 ... middle
Cc1cnc(N[C@H]2CC[C@H](N)CC2)nc1-c1cnc2ccc(-c3ncccc3F)cn12 ... low end
Cc1cnc(N[C@H]2CC[C@H](N)CC2)nc1-c1cnc2ccc(NCc3ccc(F)cc3)cn12 ... middle
COC(=O)CN1CCC(Nc2ncc(F)c(-c3cnc4ccccn34)n2)CC1 ... middle
COc1cnc(N[C@H]2CC[C@H](N)CC2)nc1-c1cnc2ccc(-c3ccccc3)cn12 ... low end
Cc1ccc(Nc2ccc3ncc(-c4nc(N[C@H]5CC[C@H](N)CC5)ncc4C)n3c2)cn1 ... middle
CN(C)S(=O)(=O)c1ccc(-c2ccc3ncc(-c4nc(N[C@H]5CC[C@H](N)CC5)ncc4F)n3c2)cc1 ... low end
N[C@H]1CC[C@H](Nc2ncc(F)c(-c3cnc4ccc(-c5cccnc5)cn34)n2)CC1 ... low end
CCN[C@H]1CC[C@@H](Nc2ncc(C)c(-c3cnc4ccc(-c5ccccc5)cn34)n2)CC1 ... low end
N[C@H]1CC[C@H](Nc2ncc(Cl)c(-c3cnc4ccc(-c5cncnc5)cn34)n2)CC1 ... middle
CN1CCC(Nc2ncc(F)c(-c3cnc4ccc(Nc5cncnc5)cn34)n2)CC1 ... middle
Cc1cnc(N[C@H]2CC[C@@H](N)CC2)nc1-c1cnc2ccc(Nc3cncnc3)cn12 ... high end
Fc1cnc(N[C@H]2CC[C@H](NC3CCOCC3)CC2)nc1-c1cnc2ccccn12 ... low end
Cc1cnc(N[C@H]2CC[C@H](N)CC2)nc1-c1cnc2ccc(-c3c(C)noc3C)cn12 ... middle
Cc1cnc(N[C@H]2CC[C@H](N)CC2)nc1-c1cnc2cc(C(F)(F)F)c(Br)cn12 ... middle
Cc1cnc(NC2CCCC(N)C2)nc1-c1cnc2ccc(-c3ccccc3)cn12 (stereo not shown) ... high end
CN1CCC(Nc2ncc(F)c(-c3cnc4ccc(-c5ccc(S(=O)(=O)N(C)C)cc5)cn34)n2)CC1 ... middle
Cc1cnc(N[C@H]2CC[C@H](N)CC2)nc1-c1cnc2ccc(Nc3cncnc3)cn12 ... high end
Fc1cnc(N[C@H]2CC[C@H](N3CCCC3)CC2)nc1-c1cnc2ccc(-c3ccccc3)cn12 ... low end
Cc1cnc(N[C@H]2CC[C@H](C)CC2)nc1-c1cnc2ccc(-c3ccccc3)cn12 ... high end
Cc1cnc(N[C@H]2CC[C@H](N3CCC3)CC2)nc1-c1cnc2ccc(-c3ccccc3)cn12 ... high end

###

molecular target: CDKs and other kinases (Homo sapiens, UniProt P50613); construct: other: CDK7H; residual activity (%) at 10 μM CDK7H; compound at 10 μM; experiment: Radiometric kinase assay (Eurofins Pharma Discovery or Reaction Biology Corporation Kinase Profiler); assay type: biochemical; conditions: CDK7H; compound at 10 μM; read-out: residual activity (%) at 10 μM CDK7H
Sequence (P50613 whole entry): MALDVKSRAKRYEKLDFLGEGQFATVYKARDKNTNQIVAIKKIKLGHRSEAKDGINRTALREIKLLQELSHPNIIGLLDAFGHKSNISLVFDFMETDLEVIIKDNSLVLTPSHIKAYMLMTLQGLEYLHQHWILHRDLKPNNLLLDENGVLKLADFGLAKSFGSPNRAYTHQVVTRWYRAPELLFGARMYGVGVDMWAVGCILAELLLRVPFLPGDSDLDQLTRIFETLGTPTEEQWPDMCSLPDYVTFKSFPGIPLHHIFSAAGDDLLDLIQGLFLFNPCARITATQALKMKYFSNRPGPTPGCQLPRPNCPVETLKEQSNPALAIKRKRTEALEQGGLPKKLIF
PARAMETER: remaining activity at 10 µM (%)

Cc1cnc(N[C@H]2CC[C@H](NS(C)(=O)=O)CC2)nc1-c1cnc2ccc(Nc3cncnc3)cn12 ... 94
Cc1cnc(N[C@H]2CC[C@@H](N)CC2)nc1-c1cnc2ccc(Nc3cccnc3)cn12 ... 27
N[C@H]1CC[C@H](Nc2ncc(F)c(-c3cnc4ccc(Nc5cccc(F)c5)cn34)n2)CC1 ... 1
Cc1cnc(NC2CCOCC2)nc1-c1cnc2ccc(Nc3cncnc3)cn12 ... 57
Cc1cnc(N[C@]23C[C@@]4(C)C[C@](C)(C[C@](O)(C4)C2)C3)nc1-c1cnc2ccc(Nc3cccnc3)cn12 ... 85

###

target: CDKs and other kinases (Homo sapiens); construct: other: CDK7H; residual activity (%) at 10 μM CDK7H; compound at 10 μM; assay: Radiometric kinase assay (Eurofins Pharma Discovery or Reaction Biology Corporation Kinase Profiler); format: biochemical; conditions: CDK7H; compound at 10 μM; read-out: residual activity (%) at 10 μM CDK7H
PARAMETER: remaining activity at 10 µM (%)

Cc1cnc(NC2CCC(N(C)C)CC2)nc1-c1cnc2ccc(Nc3cncc(F)c3)cn12 (stereo not drawn) ... 29
Cc1cnc(N[C@H]2CC[C@H](N)CC2)nc1-c1cnc2ccc(-c3ccc(N4CCOCC4)nc3)cn12 ... 37
N[C@H]1CC[C@H](Nc2ncc(F)c(-c3cnc4cc(Cl)ccn34)n2)CC1 ... 3
COc1ccc(-c2ccc3ncc(-c4nc(N[C@H]5CC[C@H](O)CC5)ncc4Cl)n3c2)cn1 ... 49
Cc1cnc(NC2CCCC(N)C2)nc1-c1cnc2ccc(Nc3cncnc3)cn12 (stereo not drawn) ... 63
Cc1cnc(N[C@H]2CC[C@H](N)CC2)nc1-c1cnc2ccc(-c3ccc(CN4CCOCC4)cc3)cn12 ... 37
Cc1cnc(N[C@H]2CC[C@H](N)CC2)nc1-c1cnc2cc(-c3ccccc3)ccn12 ... 5
Cc1cnc(N[C@H]2CC[C@H](N)CC2)nc1-c1cnc2ccc(-c3ncccc3F)cn12 ... 13
Cc1cnc(N[C@H]2CC[C@H](N)CC2)nc1-c1cnc2ccc(-c3ccc(S(=O)(=O)N(C)C)cc3)cn12 ... 60
Cc1cnc(N[C@H]2CC[C@H](N)CC2)nc1-c1cnc2ccc(Nc3ccccn3)cn12 ... 34
CN(C)S(=O)(=O)c1ccc(-c2ccc3ncc(-c4nc(N[C@H]5CC[C@H](N)CC5)ncc4F)n3c2)cc1 ... 8
CCN[C@H]1CC[C@H](Nc2ncc(C)c(-c3cnc4ccc(-c5ccccc5)cn34)n2)CC1 ... 20
Fc1cnc(NC2CCNCC2)nc1-c1cnc2cc(-c3ccccc3)ccn12 ... 18
COCCN[C@H]1CC[C@H](Nc2ncc(C)c(-c3cnc4ccc(-c5ccccc5)cn34)n2)CC1 ... 18
CS(=O)(=O)N1CCC(Nc2ncc(F)c(-c3cnc4cc(-c5ccccc5)ccn34)n2)CC1 ... 65
Cc1cnc(N[C@H]2CC[C@H](N3CCC3)CC2)nc1-c1cnc2ccc(Nc3cncc(F)c3)cn12 ... 15
N[C@H]1CC[C@H](Nc2ncc(F)c(-c3cnc4cc(-c5cccnc5)ccn34)n2)CC1 ... 2
Cc1cnc(N[C@H]2CC[C@H](N)CC2)nc1-c1cnc2ccc(Oc3cccnc3)cn12 ... 50
Cc1cnc(NC2CCC(N3CCNC(=O)C3)CC2)nc1-c1cnc2ccc(Nc3cncnc3)cn12 (stereo not drawn) ... 55
Fc1cnc(N[C@H]2CC[C@H](N3CCC3)CC2)nc1-c1cnc2ccc(-c3ccccc3)cn12 ... 0
CNC(=O)N[C@H]1CC[C@H](Nc2ncc(C)c(-c3cnc4ccc(Nc5cncnc5)cn34)n2)CC1 ... 21

###

Quick list: remaining activity at 10 µM per entry.
molecular target: CDK4/D1 (Homo sapiens); assay: ADP Glo Kinase assay CDK4/D1; format: biochemical; details: CDK4D1; compound at 10 μM; read-out: residual activity (%) at 10 μM CDK4D1
Sequence (P11802 whole entry): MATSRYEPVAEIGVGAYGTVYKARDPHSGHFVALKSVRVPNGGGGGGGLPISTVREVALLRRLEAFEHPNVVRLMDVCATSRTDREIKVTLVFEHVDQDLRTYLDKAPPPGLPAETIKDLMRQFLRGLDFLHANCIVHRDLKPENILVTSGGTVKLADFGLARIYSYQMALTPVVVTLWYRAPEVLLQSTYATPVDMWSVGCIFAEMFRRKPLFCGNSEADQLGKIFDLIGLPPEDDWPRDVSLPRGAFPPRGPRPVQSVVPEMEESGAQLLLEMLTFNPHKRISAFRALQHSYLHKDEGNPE
Sequence (P24385 whole entry partner): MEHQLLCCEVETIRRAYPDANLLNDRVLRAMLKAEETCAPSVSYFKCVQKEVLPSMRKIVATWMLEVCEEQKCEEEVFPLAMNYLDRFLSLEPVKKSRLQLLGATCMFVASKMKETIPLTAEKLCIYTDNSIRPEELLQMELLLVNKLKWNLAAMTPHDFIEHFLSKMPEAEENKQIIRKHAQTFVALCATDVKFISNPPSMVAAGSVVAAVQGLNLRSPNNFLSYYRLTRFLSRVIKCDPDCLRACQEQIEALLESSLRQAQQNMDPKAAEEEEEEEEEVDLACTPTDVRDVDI
PARAMETER: remaining activity at 10 µM (%)

Cc1cnc(N[C@H]2CC[C@H](O)CC2)nc1-c1cnc2ccc(Nc3cncnc3)cn12 ... 70
Cc1cnc(N[C@H]2CC[C@H](N)CC2)nc1-c1cnc2ccc(Nc3ccncc3)cn12 ... 11
Cc1cnc(N[C@H]2CC[C@H](N3CCC3)CC2)nc1-c1cnc2ccc(Nc3cncc(F)c3)cn12 ... 14
N[C@H]1CC[C@H](Nc2ncc(F)c(-c3cnc4ccc(C(F)(F)F)cn34)n2)CC1 ... 0
N[C@H]1CC[C@H](Nc2ncc(F)c(-c3cnc4ccc(-c5ccc(CN6CCOCC6)cc5)cn34)n2)CC1 ... 4
Cc1cnc(N[C@H]2CC[C@H](N)CC2)nc1-c1cnc2ccc(-c3c(C)noc3C)cn12 ... 55
Fc1cnc(N[C@H]2CC[C@H](N3CCCC3)CC2)nc1-c1cnc2ccc(-c3ccccc3)cn12 ... 7
CC(=O)NC1CCC(Nc2ncc(C)c(-c3cnc4ccc(Nc5cncnc5)cn34)n2)CC1 (stereo not drawn) ... 28
N[C@H]1CC[C@H](Nc2ncc(Cl)c(-c3cnc4ccc(-c5ccccc5)cn34)n2)CC1 ... 13
Fc1cnc(NC2CCNCC2)nc1-c1cnc2ccccn12 ... -11
Cc1cnc(N[C@H]2CC[C@@H](N)CC2)nc1-c1cnc2ccc(Nc3cncnc3)cn12 ... 28
N[C@H]1CC[C@H](Nc2ncc(F)c(-c3cnc4ccc(-c5ccc(C(=O)N6CCNCC6)cc5)cn34)n2)CC1 ... 0
N[C@H]1CC[C@H](Nc2ncc(F)c(-c3cnc4cc(Nc5cccnc5)ccn34)n2)CC1 ... 0
COCCN[C@H]1CC[C@H](Nc2ncc(C)c(-c3cnc4ccc(-c5ccccc5)cn34)n2)CC1 ... 32
CN(C)S(=O)(=O)c1ccc(-c2ccc3ncc(-c4nc(N[C@H]5CC[C@H](N)CC5)ncc4F)n3c2)cc1 ... 4
Cc1cnc(N[C@H]2CC[C@H](N)CC2)nc1-c1cnc2ccc(NC(=O)Cc3ccccc3)cn12 ... 53
Cc1cnc(N[C@H]2CC[C@H](N(CC(N)=O)CC(N)=O)CC2)nc1-c1cnc2ccc(Nc3cncnc3)cn12 ... 3
Cc1cnc(N[C@H]2CC[C@H](N)CC2)nc1-c1cnc2ccc(Oc3cccnc3)cn12 ... 41

Every entry's value here was drawn from patent US11111245B2.
